Test system: 409B2 hiPSC (iCRISPR Cas9, FRMD7 editing)
testProtocol: cell survival relative to solvent control (fold (ratio to mock)); higher = more surviving cells
experimentalParameters: 500 nM
Recorded cell survival values for a group of compounds are listed next.
Please reply with the value in numeric form only.

Known cell survival results, listed for orientation:
CSCCC(N)C(=O)O (racemic) [DL-Methionine] (in H2O) ... 0.861
O=C(O[C@H]1CN2CCC1CC2)N1CCc2ccccc2[C@@H]1c1ccccc1 [Solifenacin succinate] (in DMSO) ... 1.16
O[C@@H]1[C@H](O)[C@H](O)CO[C@H]1O [D-Ribose] (in DMSO) ... 1.16

Please find the next compound below.
[ask] Look up cell survival for this compound: Nc1ncnc2c1ncn2C1CC(O)C(CO)O1 (centres undefined) [2'-Deoxyadenosine monohydrate] (in DMSO)
[reply] 1.12

###

Recorded cell survival values for a group of compounds are listed next.
System: 409B2 hiPSC (iCRISPR Cas9, FRMD7 editing)
testProtocol: cell survival relative to solvent control (fold (ratio to mock)); higher = more surviving cells
experimentalParameters: 100 nM
Please reply with the value in numeric form only.

Known cell survival results, listed for orientation:
C[C@]12CC[C@@H]3c4ccc(O)cc4CC[C@H]3[C@@H]1C[C@@H](O)[C@@H]2O [Estriol] (in DMSO) ... 0.907
CC[C@@]1(O)C(=O)OCc2c1cc1n(c2=O)Cc2cc3cc(O)ccc3nc2-1 [10-Hydroxycamptothecin] (in DMSO) ... -0.00864
CC(=O)O[C@]1(C(C)=O)CC[C@H]2[C@@H]3C=C(Cl)C4=CC(=O)[C@@H]5C[C@@H]5[C@]4(C)[C@H]3CC[C@@]21C [Cyproterone Acetate] (in DMSO) ... 1.12
NCCS [2-Aminoethanethiol] (in DMSO) ... 0.956

[ask] Look up cell survival for this compound: CCCCCCCCCCCCCC(=O)O [Myristic Acid] (in DMSO)
[reply] 1.07

[ask] Look up cell survival for this compound: C=CC[C@]1(O)CC[C@H]2[C@@H]3CCC4=CC(=O)CCC4=C3C=C[C@@]21C [Altrenogest] (in DMSO)
[reply] 0.87

###

Test system: 409B2 hiPSC (iCRISPR Cas9, FRMD7 editing)
testProtocol: cell survival relative to solvent control (fold (ratio to mock)); higher = more surviving cells
experimentalParameters: 500 nM
Recorded cell survival values for a group of molecules are listed next.
Please reply with the value in numeric form only.

[ask] Look up cell survival for this molecule: Nc1c(CC(=O)O)cccc1C(=O)c1ccc(Br)cc1 [Bromfenac Sodium] (in DMSO)
[reply] 1.2

###

Test system: 409B2 hiPSC (iCRISPR Cas9, FRMD7 editing)
testProtocol: MMEJ-attributed deletion frequency relative to solvent control (fold (ratio to mock)); higher = more MMEJ outcomes
experimentalParameters: 20 nM
Lab note: compare MMEJ-attributed deletion frequency against 1. Equal or greater, write label 1. Smaller, write label 0.

Observe how each entry below is paired with its result.
NS(=O)(=O)c1ccccc1 [Benzenesulfonamide] (in DMSO) ... label 0
CC[C@@]1(O)C(=O)OCc2c1cc1n(c2=O)Cc2cc3cc(O)ccc3nc2-1 [10-Hydroxycamptothecin] (in DMSO) ... label 0

Please look at the following molecule next.
[ask] Has CNCc1ccc(-c2[nH]c3cc(F)cc4c3c2CCNC4=O)cc1 [Rucaparib (free base)] (in DMSO) a recorded MMEJ-attributed deletion frequency greater than or equal to 1?
[reply] label 1

This collection of values is drawn from the supplement of paper PMC12698765.
